Molecular target: human 5-HT4(a) (Homo sapiens)
Assay: Evaluation of agonistic activity in CHO-K1 cells expressing human 5-HT4(a) (GeneBlAzer HTR4-CRE-bla CHO-K1, beta-lactamase reporter)
Conditions: CHO-K1 cells stably expressing human 5-HT4(a)
property_name: EC50 (nM)
Write the value in nM as a bare number.

Some compounds with known EC50 results, for comparison:
[[record]]
smiles_repr = "CCCCc1cc(N2CCC[C@H]2C)nc(Nc2cccc(C#N)c2)n1"
tested_target = "human 5-HT4(a) (Homo sapiens)"
endpoint_result = 0.052

[[record]]
smiles_repr = "CCCc1cc(N2CC[C@H](NCC(C)(C)C)C2)nc(Nc2ccc(C)c(C#N)c2)n1"
tested_target = "human 5-HT4(a) (Homo sapiens)"
endpoint_result = 0.0084

[[record]]
smiles_repr = "CCCc1cc(N2CCC[C@H]2COC)nc(Nc2ccc(F)c([N+](=O)[O-])c2)n1"
tested_target = "human 5-HT4(a) (Homo sapiens)"
endpoint_result = 0.13


Given the compound `CCCc1cc(N2CC[C@H](NCC3CC3)C2)nc(Nc2cccc(C(F)(F)F)c2)n1` and test system human 5-HT4(a) (Homo sapiens), the measured EC50 is 0.0098

Given the compound `CCCCc1cc(N2CC[C@H](NCC)C2)nc(Nc2cc(N)cc(C#N)c2)n1` and test system human 5-HT4(a) (Homo sapiens), the measured EC50 is 0.0022

Given the compound `CCCc1cc(N2CC[C@H](NC(=O)CN(C)C)C2)nc(Nc2cccc(C#N)c2)n1` and test system human 5-HT4(a) (Homo sapiens), the measured EC50 is 0.121

Given the compound `CCCc1cc(N2CC[C@H](NC(C)=O)C2)nc(Nc2cccc(C#N)c2)n1` and test system human 5-HT4(a) (Homo sapiens), the measured EC50 is 0.032

Given the compound `CCCc1cc(N2CC[C@H](NC(C)=O)C2)nc(Nc2cc(N)cc(C(F)(F)F)c2)n1` and test system human 5-HT4(a) (Homo sapiens), the measured EC50 is 0.011

###

Molecular target: human 5-HT4(a) (Homo sapiens)
Assay: Evaluation of agonistic activity in CHO-K1 cells expressing human 5-HT4(a) (GeneBlAzer HTR4-CRE-bla CHO-K1, beta-lactamase reporter)
Conditions: CHO-K1 cells stably expressing human 5-HT4(a)
Counter-ions that a name gives are not always drawn.
property_name: EC50
Form entry: enter the amount, then its unit.

Some compounds with known EC50 results, for comparison:
[[record]]
compound = "CCCc1cc(N2CC[C@H](NC(C)=O)C2)nc(Nc2ccc(F)cc2)n1"
property_name = "EC50"
endpoint_result = "0.35 nM"

[[record]]
compound = "CCCc1cc(N2CC[C@H](NS(C)(=O)=O)C2)nc(Nc2cccc(C#N)c2)n1"
property_name = "EC50"
endpoint_result = "0.159 nM"


Notebook: `CCCc1cc(N2CC[C@H](NC(=O)CO)C2)nc(Nc2cc(N)cc(C#N)c2)n1` , EC50 read as 0.0066 nM

Notebook: CCCc1cc(N2CCC(NC)C2)nc(Nc2cccc(C#N)c2)n1 (centres unmarked) [Example 59, dihydrochloride] , EC50 read as 0.028 nM

###

Target: human 5-HT4(a) (Homo sapiens, UniProt Q13639)
Sequence (Q13639 1-387 isoform Q13639-2): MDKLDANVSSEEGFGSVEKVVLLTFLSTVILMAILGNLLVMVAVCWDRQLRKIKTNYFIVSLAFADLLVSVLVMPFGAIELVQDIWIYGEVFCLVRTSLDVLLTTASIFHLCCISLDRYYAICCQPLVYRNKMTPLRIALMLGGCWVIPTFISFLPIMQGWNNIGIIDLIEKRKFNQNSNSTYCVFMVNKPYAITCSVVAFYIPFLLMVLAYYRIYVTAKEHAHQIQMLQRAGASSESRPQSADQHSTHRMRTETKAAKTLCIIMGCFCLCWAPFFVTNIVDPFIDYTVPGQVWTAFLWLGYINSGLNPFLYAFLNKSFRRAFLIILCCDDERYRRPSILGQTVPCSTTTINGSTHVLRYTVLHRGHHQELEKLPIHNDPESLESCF
Assay: Evaluation of agonistic activity in CHO-K1 cells expressing human 5-HT4(a) (GeneBlAzer HTR4-CRE-bla CHO-K1, beta-lactamase reporter)
Details: CHO-K1 cells stably expressing human 5-HT4(a)
Counter-ions that a name gives are not always drawn.
property_name: pEC50
To interpret pEC50, take it as minus log10 of a concentration measured in moles per litre.

Some compounds with known pEC50 results, for comparison:
[[record]]
compound = "CCCc1cc(N2CCC[C@H]2COC)nc(Nc2ccc(F)c(C#N)c2)n1"
tested_target = "human 5-HT4(a) (Homo sapiens, UniProt Q13639)"
endpoint_result = 9.75

[[record]]
compound = "CCCc1cc(N2CCC[C@H]2CO)nc(Nc2ccc(C)c(N)c2)n1"
tested_target = "human 5-HT4(a) (Homo sapiens, UniProt Q13639)"
endpoint_result = 9.89

[[record]]
compound = "CCCCc1cc(N2CC[C@H](NC(C)=O)C2)nc(Nc2ccc(F)c([N+](=O)[O-])c2)n1"
tested_target = "human 5-HT4(a) (Homo sapiens, UniProt Q13639)"
endpoint_result = 10.70

[[record]]
compound = "CCCCCCN[C@H]1CCN(c2cc(CCC)nc(Nc3cccc(C#N)c3)n2)C1"
tested_target = "human 5-HT4(a) (Homo sapiens, UniProt Q13639)"
endpoint_result = 10.51


Given the compound `CCCc1cc(N2CC[C@H](NCC3CC3)C2)nc(Nc2cccc(N)c2)n1` and test system human 5-HT4(a) (Homo sapiens, UniProt Q13639), the measured pEC50 is 10.11

Given the compound `CCCc1cc(N2CC[C@H](NCc3ccc(O)cc3)C2)nc(Nc2ccc(C)c(C#N)c2)n1` and test system human 5-HT4(a) (Homo sapiens, UniProt Q13639), the measured pEC50 is 11.29

Given the compound CCCc1cc(N2CC[C@H](N)C2)nc(Nc2cccc(C(F)(F)F)c2)n1 [Example 347, dihydrochloride] and test system human 5-HT4(a) (Homo sapiens, UniProt Q13639), the measured pEC50 is 10.52

Given the compound `CCCc1cc(N2CC[C@H](NCC)C2)nc(Nc2cccc(C#N)c2)n1` and test system human 5-HT4(a) (Homo sapiens, UniProt Q13639), the measured pEC50 is 10.80

###

The following compounds are listed with their measured pEC50 values.
Biological target: human 5-HT4(a) (Homo sapiens, UniProt Q13639)
Assay: Evaluation of agonistic activity in CHO-K1 cells expressing human 5-HT4(a) (GeneBlAzer HTR4-CRE-bla CHO-K1, beta-lactamase reporter)
Conditions: CHO-K1 cells stably expressing human 5-HT4(a)
To interpret pEC50, take it as minus log10 of a concentration measured in moles per litre.

Some compounds with known pEC50 results, for comparison:
[[record]]
compound = "CCCCc1cc(N2CC[C@H](NC)C2)nc(Nc2ccc(C)c([N+](=O)[O-])c2)n1"
tested_target = "human 5-HT4(a) (Homo sapiens, UniProt Q13639)"
property_name = "pEC50"
endpoint_result = 11.60

[[record]]
compound = "CCCc1cc(N2CC[C@H](NC(=O)CO)C2)nc(Nc2ccc(C)c(C#N)c2)n1"
tested_target = "human 5-HT4(a) (Homo sapiens, UniProt Q13639)"
property_name = "pEC50"
endpoint_result = 11.12


Notebook: `CCCc1cc(N2CC[C@H](NC(C)=O)C2)nc(Nc2ccc(F)c(N)c2)n1` , pEC50 read as 11.13

Notebook: `CCCc1cc(N2CC[C@H](NC)C2)nc(Nc2ccc(F)c(N)c2)n1` , pEC50 read as 11.24

Notebook: CCCc1cc(N2CC[C@H](NCC(C)CC)C2)nc(Nc2cccc(C#N)c2)n1 (stereo partly shown) , pEC50 read as 10.09

Notebook: `CCCCCN[C@H]1CCN(c2cc(CCC)nc(Nc3ccc(C)c(C#N)c3)n2)C1` , pEC50 read as 10.96

###

Molecular target: human 5-HT4(a) (Homo sapiens)
Construct: host or cells: GeneBlAzer HTR4-CRE-bla CHO-K1 cells
Experiment: Evaluation of agonistic activity in CHO-K1 cells expressing human 5-HT4(a) (GeneBlAzer HTR4-CRE-bla CHO-K1, beta-lactamase reporter)
Format: cell-based
Conditions: CHO-K1 cells stably expressing human 5-HT4(a)
Structures can show the parent of a compound that is named as a salt.
The following compounds are listed with their measured EC50 values.
Write the value in nM as a bare number.

Some compounds with known EC50 results, for comparison:
[[record]]
compound = "CCCc1cc(N2CC[C@H](N)C2)nc(Nc2cccc(C#N)c2)n1 [Example 60, dihydrochloride]"
tested_target = "human 5-HT4(a) (Homo sapiens)"
property_name = "EC50"
unit = "nM"
endpoint_result = 0.047

[[record]]
compound = "CCCc1cc(N2CC[C@H](NC(=O)CC)C2)nc(Nc2ccc(C)c(C#N)c2)n1 [Example 425]"
tested_target = "human 5-HT4(a) (Homo sapiens)"
property_name = "EC50"
unit = "nM"
endpoint_result = 0.056

[[record]]
compound = "CCCc1cc(N2CC[C@H](NC(C)=O)C2)nc(Nc2ccc(N)cc2)n1 [Example 270]"
tested_target = "human 5-HT4(a) (Homo sapiens)"
property_name = "EC50"
unit = "nM"
endpoint_result = 0.204


Notebook: CCCc1cc(N2CC[C@H](NCCOCc3ccccc3)C2)nc(Nc2cccc(C#N)c2)n1 [Example 145] , EC50 read as 0.046

Notebook: CCCc1cc(N2CC[C@H](NCc3ccsc3)C2)nc(Nc2cccc(C#N)c2)n1 [Example 113] , EC50 read as 0.016

Notebook: CCCc1cc(N2CC[C@H](NC(=O)CO)C2)nc(Nc2cc(N)cc(C(F)(F)F)c2)n1 [Example 475] , EC50 read as 0.011

Notebook: CCCc1cc(N2CCC[C@H]2CNCc2ccc(F)cc2)nc(Nc2cccc(C#N)c2)n1 [Example 405] , EC50 read as 0.399

Notebook: CCCc1cc(N2CCC[C@H]2COC)nc(Nc2ccc(C)c(C#N)c2)n1 [Example 44] , EC50 read as 0.022
